Every entry's value here was drawn from patent EP4424325A1.

# assay_target: T1, recombinant hTfR, extracellular region of human transferrin receptor with a histidine tag added at the … (human, UniProt P02786 89-760)
# T1 construct: also called hTfR-ECD(Histag); human TfR; not shown: N-terminal histidine tag
# T1 sequence (P02786 89-760): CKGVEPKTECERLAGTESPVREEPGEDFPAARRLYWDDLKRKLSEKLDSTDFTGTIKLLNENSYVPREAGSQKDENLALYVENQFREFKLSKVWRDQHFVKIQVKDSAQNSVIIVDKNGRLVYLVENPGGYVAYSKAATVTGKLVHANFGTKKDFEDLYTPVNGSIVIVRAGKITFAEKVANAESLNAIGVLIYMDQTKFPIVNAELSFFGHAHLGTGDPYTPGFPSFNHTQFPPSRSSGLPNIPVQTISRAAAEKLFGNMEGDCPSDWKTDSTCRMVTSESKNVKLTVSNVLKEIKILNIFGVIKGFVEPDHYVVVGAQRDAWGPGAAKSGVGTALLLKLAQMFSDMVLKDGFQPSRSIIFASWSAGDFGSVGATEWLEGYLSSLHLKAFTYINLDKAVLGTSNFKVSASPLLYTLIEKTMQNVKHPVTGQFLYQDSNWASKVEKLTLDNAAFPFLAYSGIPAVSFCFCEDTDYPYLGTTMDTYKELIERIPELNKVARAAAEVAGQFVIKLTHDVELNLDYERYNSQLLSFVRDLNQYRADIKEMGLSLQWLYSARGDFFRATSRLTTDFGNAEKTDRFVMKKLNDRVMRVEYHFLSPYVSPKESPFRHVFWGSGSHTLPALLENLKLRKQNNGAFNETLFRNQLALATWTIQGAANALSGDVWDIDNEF
# method_summary: BLI (OctetRED96), His-tagged TfR ECD on Ni-NTA sensor, peptide in solution
Here the recorded log10 koff is given for each entry.
Note the log scale: values are log10 of koff expressed in s⁻¹.

1) hTfR affinity peptide 6 (VHH, One amino acid of CDR2 of peptide 5 is substituted; also called VHH6) VHH: QVQLVESGGGLVQPGGSLRLSCAASGSIFDIYVMRWYRQAPGKGLEWVASIYAGGRNDYDNVVKGRFTISRDNSKNTLYLQMNSLRAEDTAVYFCNVLTYAGRPYWGQGTQVTVSS = -1.23
2) hTfR affinity peptide 2 (VHH, The tag is stated only for peptide 1; Peptides 2 to 5 were obtained 'in the same manner'; also called clone 2; VHH(2)) VHH: QVQLVESGGGLVHPGGSLSLSCAASGTSFSFNTVTWYRQALGKQREWVATINGSGAPTYADSVKGRFTISRDGAKNTVYLLMNSLVTEDTALYYCYDRYNEIRGQGTQVTVSS = -1.84
3) hTfR affinity peptide 4 (VHH, The tag is stated only for peptide 1; Peptides 2 to 5 were obtained 'in the same manner'; also called clone 4; VHH(4)) VHH: QVQLVESGGGLVQAGASLRLSCAASGRTDGIDRMAWFHQAPGEGREFVAGINKRGGGVDYAPGVKGRFTLSLDSDKNTLYLQMNNLRLEDTGVYSCAVGSGRIIVKSDTWGQGTQVTVSS = -2.57
4) hTfR affinity peptide 1 (VHH, Expressed in CHO-S cells, purified on Anti-FLAG M1 agarose; also called clone 1; VHH(1)) VHH: QVQLVESGGGLVHPGGSLRLSCVASGTSFSLNVVTWYRQALGKQREWVATINQSEAPTYADSVKGRFTISRDGAKNTVYLQMNSLVTEDTALYYCYDRYNEIRGQGTQVTVSS = -1.57
5) hTfR affinity peptide 5 (VHH, Same CDRs as peptide 3; The tag is stated only for peptide 1; Peptides 2 to 5 were obtained 'in the same manner'; also called clone 5; VHH(5)) VHH: QVQLVESGGGLVQPGGSLRLSCAASGSIFDIYVMRWYRQAPGKGLEWVASIYDGGRNDYDNVVKGRFTISRDNSKNTLYLQMNSLRAEDTAVYFCNVLTYAGRPYWGQGTQVTVSS = -2.25

Consider the additional binder presented here.
For record hTfR affinity peptide 3 (VHH, The tag is stated only for peptide 1; Peptides 2 to 5 were obtained 'in the same manner'; also called clone 3; VHH(3)) VHH: QVQLVESGGGLVQPGESLRLSCAASGSIFDIYVMRWYRQAPGNQREWVASIYDGGRNDYDNVVKGRFTISRDNAKNTVHLQMNSLKPEDTAVYFCNVLTYAGRPYWGQGTQVTVSS the listed log10 koff is -2.22
